Quick reference for TGI among some compounds
tested on: MDA-MB-231 breast; experiment: NCI tumour cell line growth inhibition, 48 h
Only the number, expressed in µM, is required.

Q: GET /values?readout=TGI&item= COc1ccc(CNC(=O)COc2ccc(/C=N/Nc3nc4ccccc4s3)cc2)cc1
A: 4.45

Further cases:
Q: GET /values?readout=TGI&item= O=[N+]([O-])C(=C(Sc1ccccc1)Sc1ccccc1)C(Cl)=C(Cl)Cl
A: 0.408

Q: GET /values?readout=TGI&item= O=C1c2ccccc2-c2c1c1cc3c(cc1c(=O)n2CCCCl)OCO3
A: 75.3

Q: GET /values?readout=TGI&item= COc1cc2c(c(O)c1C)C(=O)C(Cl)=CC2=O
A: 27.8

The measured values listed here are drawn from PubChem BioAssay (NCI).
